// growth lookup, one value per entry
Test system: A549/ATCC NSCLC
Method Summary: NCI-60 one-dose screen, 48 h (100 = growth as untreated, 0 = no growth, -100 = all killed)
Cond: 10 µM unless noted
This is part of a sample that, as a whole, favours compounds with a hit. Of some 83,000 tested, about 20% had one in any assay.
Assay Readout: growth (%)

INSERT INTO assay_data (structure_smiles_string, unit_spec, endpoint_result) VALUES
  ('CC(C)C(C)(C)C(=O)C(C)(C)C(C)(C)C', '%', 93.3),
  ('Nc1ccc2c(c1)Cc1cc(N)c(N)cc1-2', '%', 77.9),
  ('C/C(=N\O)c1ccccn1', '%', 91.2),
  ('Cc1cc(CO)c(O)c(CO)c1', '%', 103),
  ('O=C(O)Cc1ccc(Cl)cc1', '%', 120),
  ('CC(C)NC(=O)OCc1c(COC(=O)NC(C)C)c(-c2ccc(Cl)cc2)n2c1CCC2', '%', 66.5),
  ('CC1(C)CC(=O)C=C(N)C1', '%', 94.8);

* * *

System: OVCAR-3 ovarian
Method Summary: NCI-60 one-dose screen, 48 h (100 = growth as untreated, 0 = no growth, -100 = all killed)
Cond: 10 µM unless noted
The panel holds about 83,000 compounds, 20% with a hit somewhere; the sample as a whole holds those more often.
Assay Readout: growth (%)

INSERT INTO results (structure_smiles_string, assay_readout, endpoint_result) VALUES
  ('COc1ccc(/C=C\C(=O)/C=C/c2ccc(OC)cc2)cc1', 'growth', 85.1),
  ('COc1ccc2c(Cl)cc(NC(=O)Nc3c(C)cccc3C)nc2c1', 'growth', 78.2),
  ('Cc1ccc(N2C(=O)c3cccc4c(N)c(S(=O)(=O)O)cc(c34)C2=O)cc1', 'growth', 121),
  ('CCN(C(C)=O)c1ccc([N+](=O)[O-])cc1', 'growth', 107),
  ('Cc1c(Cl)cccc1N=C=S', 'growth', 102),
  ('CCCCCCCCCCCCCCCCOc1ccccc1NC(=O)CC(C)=O', 'growth', 118);

* * *

// growth lookup, one value per entry
Tested on: ACHN renal
Method Summary: NCI-60 one-dose screen, 48 h (100 = growth as untreated, 0 = no growth, -100 = all killed)
Cond: 10 µM unless noted
Compounds without any hit were thinned out: in the full panel of roughly 83,000, 20% have a hit.
Assay Readout: growth (%)

INSERT INTO measurements (molecule, endpoint_result) VALUES
  ('NNC(=O)c1ccccc1N', 111),
  ('CC1(C)OC2C(CO)OC(n3ccc(=O)[nH]c3=O)C2O1 (stereo not given)', 104),
  ('CC(C)(C)[Si](C)(C)OCC1OC(n2cnc3c(N)ncnc32)CC1OS(C)(=O)=O (stereo not given)', 114),
  ('CCOC(C=O)OCC', 112),
  ('O=C(O)Cc1cccc2ccccc12', 103),
  ('CCc1ccccc1C(=O)N(CC)CC', 104),
  ('O=C(O)CC1=CCCCC1', 91.1),
  ('c1ccc2[nH]c(Cc3nc4ccccc4[nH]3)nc2c1', 96.2),
  ('O=C(Nc1ccccc1)c1ccco1', 107),
  ('Cc1ccc2nc(N)nnc2c1', 108),
  ('CC(=O)NC(O)C(Cl)Cl (stereo not given)', 105),
  ('OCCc1ccc(Cl)cc1', 105),
  ('Cc1onc(-c2c(F)cccc2Cl)c1-c1ncc(-c2ccc(Br)cc2)o1', 32.8),
  ('C=CC1=NC(C)(C)CC(C)O1 (stereo not given)', 101),
  ('N#C/C(=C\c1ccc2c(c1)OCO2)c1ccccc1', 93.6);

Reference source for all entries: PubChem BioAssay (NCI)
